Assay: protein stability index of a GFP-peptide fusion (yeast GPS) (PSI 1-4); higher = more stable; sorted into four equal gates, so the index is relative within each strain
Settings: doa10∆
Hi there, I'd appreciate the recorded protein stability index for every entry that follows.
Numbers only.

Solved cases (2 shown):
Prompt line: For the sequence IQLLDENVGTRLLPINV [MED11] , what protein stability index is on record?
Response line: 3.09

Prompt line: Further, for MQANTNALRRNLLKDEG [SSN3] ?
Response line: 2.94

State the recorded protein stability index for every item in the following list.
1. CIFGDAFDVDRAKSCGV [RPL1A]
2. AQQAQQAQQAQQAQARL [SNF2]
3. KNAGLGFKTPKTAIEGS [RPS11A]

Response line:
3.01
3.08
3.01

====

Assay: protein stability index of a GFP-peptide fusion (yeast GPS) (PSI 1-4); higher = more stable; sorted into four equal gates, so the index is relative within each strain
Settings: doa10∆
Kindly supply the reported protein stability index values for the records listed here.
Give bare numbers.

Example cases with answers are listed next.
Prompt line: // returns reported protein stability index for input YYYYHPMNAPTPAMIPY [DSN1]
Response line: 2.14

Prompt line: Now the sequence SQSRSAKAGLTFPVGRV [HTA1]
Response line: 2.8

Prompt line: Now try YWYFLQKLHKVKKASGE [RPL20A] .
Response line: 3.1

Prompt line: Would you kindly repeat that for GTNNARLAQLLRQLASY [RPN1] ?
Response line: 3.17

Answer for every listed entry: what is its protein stability index? The entries follow.
1. NIDSSAQFTFGKAATAK [YOR098C/NUP1]
2. NRRGMLALSGTSASNTS [SNF5]
3. FIDSICKLFDKISFNLR [SRB8]
4. RCFENLQNKSFKSVLPI [UBP6]
5. ENRFQDTLLLLPTDGGL [POP4]

Response line:
3.12
3.02
2.23
2.35
1.46

====

Assay: protein stability index of a GFP-peptide fusion (yeast GPS) (PSI 1-4); higher = more stable; sorted into four equal gates, so the index is relative within each strain
Details: doa10∆
Would you mind telling me the reported protein stability index of each entry?

Answered cases to consult:
Prompt line: Which protein stability index is listed for THPHAADGSSYMEQGNN [SKI6] ?
Response line: 3.05

Prompt line: How about GKPHFSLLGGFDENIAR [PCI8] ?
Response line: 3.18

Prompt line: Same thing, different sequence: QKLFVQVSNFAPQVYII [GAL11]
Response line: 2.62

Prompt line: How about this sequence: EENSQGNILDFNLNLPP [REC8]
Response line: 3.06

Dear reader, for each entry below, please note its protein stability index.
1. TLSNAERAKNVNGLLQV [GAL11]
2. FGSKPTGATSLFGSSNN [YGL172W/NUP49]
3. ESNIKMTLEDNNVTSNP [SSN2]
4. LMTHITTDDEEEPIKKL [RET1]
5. QDRQQLLPLVVSNISCL [ECM29]
6. IPSQRGTSTTHGSISPQ [SIR3]
7. ATEKKSSSPLAMSETLS [PRE8]

Response line:
1. 3.22
2. 3.39
3. 2.91
4. 3.42
5. 1.38
6. 2.39
7. 2.33

====

For each entry below, report its protein stability index value.
Assay: protein stability index of a GFP-peptide fusion (yeast GPS) (PSI 1-4); higher = more stable; sorted into four equal gates, so the index is relative within each strain
Settings: pdr5∆

Prompt line: For the sequence shown here, NTEKDYKMVQEQLSKQR [SMC2] , give the reported protein stability index.
Response line: 3.17

Prompt line: Request: LLTKNVSCYRPRRDGER [RPS6A]
Response line: 2.8

Prompt line: Try this sequence too: STRVEFEKLYSDLMKFL [FAS2]
Response line: 3.27

Prompt line: And TMYMEVYTAIYNYCVNK [CDC53] ?
Response line: 1.55

Prompt line: Now consider GKNVINRERFISKLFLR [SMD2] .
Response line: 1.69

// for each sequence in input: emit protein stability index
1. ERHQKQLNEKLVGRLRK [YCS4]
2. ILKTLERSICALGEFAD [YML031W/NDC1]

Response line:
3.18
3.04
